Test: changes in parasitized red cell lysis, either direction – P. falciparum Indochina, OD700, 3 h, PSAC antagonist project, primary screen (AID 1156)
Conditions: P. falciparum-infected erythrocytes, osmotic lysis, higher = more signal, called active from +8 up or from −8 down
Binary call on z-score: y from 0.7 upward, n beneath that.

[[record]]
compound = "CCCN1C(=O)[C@@]2(Cc3ccccc3)N=C(c3ccc(OCCCO)cc3)O[C@H]2c2ccccc21"
cat = "y"

[[record]]
compound = "COCCOC(=O)N1C(=O)[C@@]2(c3cc(C#Cc4ccc(OC)cc4)ccc31)[C@H](C(=O)N1CCc3cc(OC)c(OC)cc3C1)[C@H]1C(=O)O[C@H](c3ccccc3)[C@H](c3ccccc3)N1[C@@H]2c1ccc(O)cc1"
cat = "n"

[[record]]
compound = "CN1C(=O)C2C=CC(C(O)c3ccc(F)cc3)N(N3CCCCC3)C2C1=O (stereo not given)"
cat = "y"

[[record]]
compound = "CCOC(=O)C1=CCC(c2cccc(Cl)c2)O1 (stereo not given)"
cat = "y"

[[record]]
compound = "[N-]=[N+]=Nc1ccccc1[C@@H]1OC(c2ccc(OCCCO)cc2)=N[C@]1(CCS(=O)(=O)c1ccccc1)C(=O)NCc1ccccc1"
cat = "y"

[[record]]
compound = "COCCOC(=O)N1C(=O)[C@@]2(c3cc(C#CCCO)ccc31)[C@H](C(=O)NC[C@H](O)c1ccccc1)[C@H]1C(=O)O[C@H](c3ccccc3)[C@H](c3ccccc3)N1[C@@H]2c1ccccc1OCCO"
cat = "n"

[[record]]
compound = "C#CCNS(=O)(=O)N(C)C"
cat = "n"

[[record]]
compound = "O=C1c2ccccc2[C@](Cc2ccccc2I)(C(=O)NCC(F)(F)F)[C@H](c2ccc(CO)cc2)N1Cc1ccccc1"
cat = "n"

[[record]]
compound = "CC1=C2[C@@H](CCc3ccccc3)OB(O)C[C@@H]2[C@@H]2C(=O)C=CC(=O)[C@@H]2C1"
cat = "n"

[[record]]
compound = "Cc1ccc(S[C@]2(C(=O)O)CC(=O)N(C3CCCCC3)[C@@H]2c2ccc(CO)cc2)cc1"
cat = "y"

[[record]]
compound = "CN(C)C(=O)[C@@]1(Cc2ccccc2N=[N+]=[N-])N=C(c2ccc(OCCCO)cc2)O[C@H]1c1ccccc1N=[N+]=[N-]"
cat = "y"

[[record]]
compound = "COCCCNC(=O)[C@@]1(Cc2ccccc2I)c2ccccc2C(=O)N(Cc2ccccc2Cl)[C@H]1c1ccc(CO)cc1"
cat = "n"

[[record]]
compound = "NC(=O)NCC#Cc1ccc2c(c1)[C@]1(C(=O)N2)[C@H](c2ccc(O)cc2)N2[C@H](c3ccccc3)[C@H](c3ccccc3)OC(=O)[C@H]2[C@@H]1C(N)=O"
cat = "y"

[[record]]
compound = "C=C(COC)C(=O)CC[C@H](OC(=O)c1ccccc1-c1ccccc1C(=O)O)c1ccc(CO)o1"
cat = "y"

[[record]]
compound = "COC(=O)[C@@]1(Cc2ccc(OC)cc2)[C@H]2c3cc(C(=O)N(C)C)n(Cc4cc(C)n(C)n4)c3C[C@H]2CN1C(=O)c1ccccc1"
cat = "y"


###

Experiment: growth effects on S. cerevisiae YJM789 – YJM789 clinical isolate, OD600, 24 h, basal, primary screen (AID 1089);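 further: growth of clinical yeast isolate S. cerevisiae YJM 789 seeded 1000 cells per well; test concentration not given here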
Settings: higher = more signal, called active from +8 up or from −8 down
Overview of recorded z-score for various compounds
experimental.endpoint: z-score

[[record]]
compound = "CCCNC(=O)[C@@]1(Sc2ccc(C)cc2)CC(=O)N(Cc2ccccc2)[C@@H]1c1ccc(CO)cc1I"
value_measured = -1.09

[[record]]
compound = "Cc1ccc(N2C(=O)c3ccccc3[C@](C)(C(=O)NC(C)C)[C@@H]2c2ccc(CO)cc2)nc1"
value_measured = -0.273

[[record]]
compound = "O=C1O[C@H](c2ccccc2)[C@H](c2ccccc2)N2[C@H]1[C@@H](C(=O)N1CCCCCCC1)[C@]1(C(=O)Nc3ccc(C#CCCO)cc31)[C@H]2c1ccc(OCCO)cc1"
value_measured = 1.55

[[record]]
compound = "CN(C)C(=O)[C@@]1(Cc2ccccc2N=[N+]=[N-])N=C(c2ccc(OCCCO)cc2)O[C@H]1c1ccccc1N=[N+]=[N-]"
value_measured = 0.506

[[record]]
compound = "C=CC[C@@]1(C(=O)NCC(O)CO)N=C(c2ccc(OCCCO)cc2)O[C@@H]1c1ccccc1 (some centres not stated)"
value_measured = -0.646

[[record]]
compound = "COc1ccc([Si](C)(C)[C@@H]2[C@@H](CCO)O[C@]3(C(=O)N(Cc4ccc(N5C(=O)c6ccccc6Oc6ccccc65)cc4)c4ccccc43)[C@H]2C)cc1"
value_measured = 3.36

[[record]]
compound = "CN(C)C(=O)[C@]1(Cc2ccccc2N=[N+]=[N-])N=C(c2ccc(OCCCO)cc2)O[C@@H]1c1ccccc1CN=[N+]=[N-]"
value_measured = -2.13


###

Test system: Chordin-like protein 2 (CHRDL2)
Test: compounds binding chordin-like 2 – biochemical, small-molecule microarray, 635 nm fluorescence, primary screen (AID 1126);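 further: printed compound slides probed with Chrdl2 protein at 4 µg/mL for 1 h at 4 C; score merges 667 nm emission intensity with signal to noise over three replicate slides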
Conditions: fluorescence 635 nm, higher = more signal
Overview of recorded composite z-score for various compounds
experimental.endpoint: composite z-score

[[record]]
compound = "O=C(Nc1cc(Br)ccc1C(=O)NCc1cccc(O)c1)c1ccccc1"
experimental_endpoint = "composite z-score"
value_measured = 0.279

[[record]]
compound = "CCCCC(=C=CC[C@H](O)c1cccc(OCCO)c1)C[C@H](O)COCc1ccccc1"
experimental_endpoint = "composite z-score"
value_measured = -0.592

[[record]]
compound = "CCN(CC)c1ccc(N2CC=CC34O[C@@H]5/C=C\\CCCOC(=O)C5[C@H]3C(=O)N(CCCCCO)[C@@H]4C2=O)cc1 (some centres not stated)"
experimental_endpoint = "composite z-score"
value_measured = -1.2

[[record]]
compound = "CC(C)C(CO)N1C(=O)[C@@H]2[C@H]3C(=O)OCC=C[C@H]3OC23C=CCN(CCN2CCOCC2)C(=O)[C@@H]13 (some centres not stated)"
experimental_endpoint = "composite z-score"
value_measured = 0.446

[[record]]
compound = "COCCOC(=O)N1C(=O)[C@@]2(c3cc(C#Cc4ccc(OC)cc4)ccc31)[C@H](C(=O)N1CCc3cc(OC)c(OC)cc3C1)[C@H]1C(=O)O[C@H](c3ccccc3)[C@H](c3ccccc3)N1[C@@H]2c1ccc(O)cc1"
experimental_endpoint = "composite z-score"
value_measured = 0.805

[[record]]
compound = "CC(C)C[C@@H]1NC(=O)[C@@H]2C[C@H](C(=O)NCc3ccc(F)cc3)[C@H](c3ccc(O)cc3)N2C1=O"
experimental_endpoint = "composite z-score"
value_measured = 0.448

[[record]]
compound = "O=C1C2C=CC(C(O)c3ccc(Br)cc3)N(Nc3ccccc3)C2C(=O)N1c1ccccc1 (configuration not stated)"
experimental_endpoint = "composite z-score"
value_measured = 0.527


###

Overview of recorded composite z-score for various compounds
Tested on: Sonic hedgehog protein (Shh)
Assay: Sonic hedgehog microarray binding compounds – biochemical, small-molecule microarray, 635/667 nm fluorescence, primary screen (AID 1151);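 further: Shh protein binding to compounds spotted on small-molecule microarray slides; score combines spot fluorescence intensity with signal-to-noise across triplicate slides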
Settings: 635 nm fluorescence, higher = more signal
experimental.endpoint: composite z-score

[[record]]
compound = "CN1C(=O)C2C=CC(C(O)c3cccc4ccccc34)N(NC(=O)OC(C)(C)C)C2C1=O (centres undefined)"
experimental_endpoint = "composite z-score"
value_measured = -0.271

[[record]]
compound = "CC(C)N1C(=O)c2ccccc2[C@](C)(C(=O)O)[C@@H]1c1ccc(CO)cc1"
experimental_endpoint = "composite z-score"
value_measured = -1.02

[[record]]
compound = "COc1ccc([Si](C)(C)[C@H]2[C@H](CCn3cc(CCO)nn3)O[C@@]3(C(=O)N(Cc4cccc(N5C(=O)c6cccc7cccc5c67)c4)c4ccccc43)[C@@H]2C)cc1"
experimental_endpoint = "composite z-score"
value_measured = 1.37

[[record]]
compound = "CCCC=C(CCC)[C@@H](NS(=O)(=O)CC)c1ccccc1"
experimental_endpoint = "composite z-score"
value_measured = -0.324

[[record]]
compound = "COc1cc2c(cc1OC)CN(C(=O)[C@@H]1[C@H]3C(=O)O[C@H](c4ccccc4)[C@H](c4ccccc4)N3[C@H](c3ccc(OCCO)cc3)[C@@]13C(=O)Nc1ccc(C#CCCO)cc13)CC2"
experimental_endpoint = "composite z-score"
value_measured = 1.25

[[record]]
compound = "CCCN1C(=O)[C@@H]2Cc3c([nH]c4ccccc34)[C@@H](c3cccc(O)c3)N2C1=O"
experimental_endpoint = "composite z-score"
value_measured = 0.216

[[record]]
compound = "CN(C)CCCN1C(=O)[C@@]2(Cc3ccccc31)c1ccccc1C(=O)N(Cc1ccccc1)[C@H]2c1ccc(CO)cc1"
experimental_endpoint = "composite z-score"
value_measured = 0.463

[[record]]
compound = "C=C(COC)C(=O)CC[C@H](OC(=O)c1ccccc1-c1ccccc1C(=O)O)c1ccc(CO)o1"
experimental_endpoint = "composite z-score"
value_measured = 1.69

[[record]]
compound = "OCc1ccc(-c2cc[n+](Cc3cccc(OC(F)(F)F)c3)cc2)cc1"
experimental_endpoint = "composite z-score"
value_measured = 1.98

[[record]]
compound = "COCCOC(=O)N1C(=O)[C@@]2(c3cc(C#CC4(O)CCCCCC4)ccc31)[C@H](C(=O)N1CCN(c3ncccn3)CC1)[C@H]1C(=O)O[C@H](c3ccccc3)[C@H](c3ccccc3)N1[C@@H]2c1ccc(O)cc1"
experimental_endpoint = "composite z-score"
value_measured = 0.481

[[record]]
compound = "[N-]=[N+]=Nc1ccccc1C[C@]1(C(=O)NCCN2CCOCC2)N=C(c2ccc(OCCCO)cc2)O[C@H]1c1ccccc1N=[N+]=[N-]"
experimental_endpoint = "composite z-score"
value_measured = 0.926

[[record]]
compound = "Cc1ccc(S[C@]2(C(=O)O)CC(=O)N(Cc3ccccc3C(F)(F)F)[C@@H]2c2ccc(CO)cc2)cc1"
experimental_endpoint = "composite z-score"
value_measured = -1.1

[[record]]
compound = "COC(=O)C(CC#Cc1ccc2c(c1)[C@]1(C(=O)N2)[C@H](c2ccccc2OCCO)N2[C@H](c3ccccc3)[C@H](c3ccccc3)OC(=O)[C@H]2[C@@H]1C(=O)Nc1nc2ccccc2s1)C(=O)OC"
experimental_endpoint = "composite z-score"
value_measured = 1.46

[[record]]
compound = "CC(C)C[C@@H]1NC(=O)[C@@H]2C[C@H](C(=O)NCc3ccc(F)cc3)[C@H](c3ccc(O)cc3)N2C1=O"
experimental_endpoint = "composite z-score"
value_measured = 1.46

